Experiment: chemical genetic growth profiling, strain panel (AID 1159580);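 note: tested at 20 µM; growth read once vehicle control cultures reached saturation at 30 °C; lower values mean less growth of the strain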
Settings: S. cerevisiae deletion strains, growth OD, locus YCL061C, strain MRC1, active compounds read low
Hit rate of the full screen: of about 5,500 compounds, about 2,000 (36%) were called active. About 18% were inconclusive and are not listed. The list shows a part of the results.
With a cut-off of 1, any normalized growth strictly below it is called t; any normalized growth meeting it or above is called f.

Hi there! Is normalized growth for CC1(C)CC2C1CCC1(C)OC2(C)CCC1O (configuration not stated) below 1, do you know?
f

# TODO verify normalized growth < 1 strictly for this compound: CC12CCCC(O)(C1)C1CC(C)(C)C1CC2 (configuration not stated)
t

Further cases:
Say whether its normalized growth is strictly beneath 1. Entry: CC[C@@H](C(=O)[C@@H](C)[C@@H](O)[C@H](C)[C@@H]1O[C@@H]([C@@H](CC)C(=O)O)CC[C@@H]1C)[C@H]1OC2(C=C[C@@H](O)[C@]3(CC[C@@](C)([C@H]4CC[C@](O)(CC)[C@H](C)O4)O3)O2)[C@H](C)C[C@@H]1C (some centres not stated)
t

// provenance: PubChem BioAssay AID1159580
